Data credit: paper PMC10397247

- SYSTEM UNDER TEST: T1, 4H3462-bH
- T1 chain: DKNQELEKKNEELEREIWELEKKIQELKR
- ASSAY DETAILS: two-hybrid library CCNG1;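 note: natural log of median RNA to DNA barcode read ratio; higher means stronger binding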
The following binders are listed with their measured interaction score values.

Known results for binders:
> print(dat)
                                     binder         observable  result
1  DKNQELEKKNEELEREIWELEKKIQELKR [4H3462-bH]  interaction score   0.634
2  DKNQELEKEIEELKRKIWELEKKNQELER [4H3175-bH]  interaction score   0.891
3  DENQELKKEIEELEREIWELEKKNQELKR [4H1544-bH]  interaction score   0.608

Prompt: # interaction score lookup, item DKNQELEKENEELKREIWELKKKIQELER [4H3277-bH]
Response: 0.203
